# Test system: 786-0
# Test description: NCI tumour cell line growth inhibition, 48 h
Activity calls are given as the source filed them. Cut-off read from the data, not from the text of the source: active = GI50 up to about 1.1 µM and inactive = higher.
Recorded metric: GI50

See these solved cases before continuing.
In [3]: df
Out[3]:
                                   compound  experimental_target      endpoint_result
0  COc1ccc(C23c4ccc(OC)cc4CC2(c2ccc([N+](=O)[O-])cc2)Cc2cc(OC)ccc23)cc1 (stereo not drawn)                786-0  > 100 µM (inactive)
1  COc1ccccc1/C=C1\CCC(CNc2ccc(Cl)cc2)C1=O (stereo not drawn)                786-0   10.5 µM (inactive)
2  CSc1nc(Cl)c2c(n1)Sc1nc3ccccc3n1C2O (stereo not drawn)                786-0   2.15 µM (inactive)
3  CCN(CC)CC(O)CNc1ccc(NCC(O)CCl)c2c1C(=O)c1ccccc1C2=O (stereo not drawn)                786-0   2.98 µM (inactive)
4            Cc1cccc2c1nc1n2C(=O)c2ccccc2-1                786-0  > 100 µM (inactive)
5  O=C(N/N=C1/C(=O)c2c3ccccc3cc3cccc1c23)c1ccccc1                786-0   19.1 µM (inactive)
6  CCOC(=O)c1cnc2c(ccc3ncccc32)c1NCCCN(CC)CC                786-0   37.9 µM (inactive)
7  COC(=O)C1(C(=O)OC)N=C(C)OC1c1ccoc1 (stereo not drawn)                786-0  > 100 µM (inactive)

Query NNc1nncn1N yields GI50 of > 80 µM (inactive)

Query COCN1C(=O)[C@@H]2CCCN2C(=O)c2ccc([N+](=O)[O-])cc21 yields GI50 of > 100 µM (inactive)
